TARGET OR TEST SYSTEM: hNMUR2 (Homo sapiens)
Sequence (Q9GZQ4 whole entry): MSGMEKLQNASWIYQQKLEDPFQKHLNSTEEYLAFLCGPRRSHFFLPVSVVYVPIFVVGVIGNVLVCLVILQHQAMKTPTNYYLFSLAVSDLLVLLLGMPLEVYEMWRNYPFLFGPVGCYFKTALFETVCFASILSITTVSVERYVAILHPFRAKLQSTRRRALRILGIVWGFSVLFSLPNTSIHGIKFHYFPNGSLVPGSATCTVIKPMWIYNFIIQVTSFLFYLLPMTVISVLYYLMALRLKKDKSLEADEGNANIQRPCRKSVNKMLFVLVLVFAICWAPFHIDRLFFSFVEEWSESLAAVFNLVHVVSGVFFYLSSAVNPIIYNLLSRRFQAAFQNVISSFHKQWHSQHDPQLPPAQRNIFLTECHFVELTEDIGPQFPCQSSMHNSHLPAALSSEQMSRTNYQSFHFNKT
ASSAY PROCEDURE: 125I-hNMU-25 binding assay, human NMUR2 membranes
Design: expressed in transfected cells; host or cells: HEK-293 FLP-In cells (pcDNA5); HEK-293/aeq17 lines (pcDNA3.1) were also made; concentration or dose not given beside the values
CONDITION NOTES: Table 9, HEK-hR2, binding
Non-standard residues stand in square brackets, D forms with d. Residues, ends and D or L forms follow the SMILES beside them. hArg = N=C(N)NCCCC[C@H](N)C(=O)O; dNle = CCCC[C@@H](N)C(=O)O
ENDPOINT: % Activity (%)
Answers are plain numbers, in %.

Record excerpt, results attached:
- CC(C)C[C@H](NC(=O)[C@H](Cc1ccccc1)NC(=O)[C@@H](N)Cc1ccc(O)cc1)C(=O)N[C@@H](Cc1ccccc1)C(=O)N[C@@H](CCCNC(=N)N)C(=O)N1CCC[C@H]1C(=O)N[C@@H](CCCNC(=N)N)C(=O)N[C@@H](CC(N)=O)C(N)=O [NMU-8, reference compound]: 100
- CC(C)C[C@H](NC(=O)[C@H](Cc1c[nH]c2ccccc12)NC(=O)[C@@H](N)Cc1ccccc1)C(=O)N[C@@H](Cc1ccccc1)C(=O)N[C@@H](CCCNC(=N)N)C(=O)N[C@@H](C)C(=O)N[C@@H](CCCCNC(=N)N)C(=O)N[C@@H](CC(N)=O)C(N)=O [Agonist J, FWLFRA-(Harg)-N-CONH2] (H-FWLFRA[hArg]N-NH2): 63
- CCCC[C@@H](NC(=O)[C@H](CCCNC(=N)N)NC(=O)[C@H](C)NC(=O)[C@H](CCCNC(=N)N)NC(=O)[C@H](Cc1ccccc1)NC(=O)[C@H](CC(C)C)NC(=O)[C@H](Cc1ccccc1)NC(=O)[C@@H](N)Cc1c[nH]c2ccccc12)C(N)=O [Agonist K, WFLFRAR-(D-Nle)-CONH2] (H-WFLFRAR[dNle]-NH2): 100

Request: Answer with reported % Activity of CC(C)C[C@H](NC(=O)[C@H](Cc1c[nH]c2ccccc12)NC(=O)[C@@H](N)Cc1ccccc1)C(=O)N[C@@H](Cc1ccccc1)C(=O)N[C@@H](CCCNC(=N)N)C(=O)N1CCC[C@H]1C(=O)N[C@@H](CCCCNC(=N)N)C(=O)N[C@@H](CC(N)=O)C(N)=O [Agonist I, FWLFRP-(Harg)-N-CONH2] (H-FWLFRP[hArg]N-NH2)
Result: 90

Origin of values: patent US20100075907A1
